ASSAY_TARGET: ATR (Homo sapiens, UniProt Q13535)
Construct: made in house; host or cells: HEK293 (293FT cells, Invitrogen R700-07), transient transfection, immunoprecipitation on Protein G Sepharose
Sequence (Q13535 whole entry): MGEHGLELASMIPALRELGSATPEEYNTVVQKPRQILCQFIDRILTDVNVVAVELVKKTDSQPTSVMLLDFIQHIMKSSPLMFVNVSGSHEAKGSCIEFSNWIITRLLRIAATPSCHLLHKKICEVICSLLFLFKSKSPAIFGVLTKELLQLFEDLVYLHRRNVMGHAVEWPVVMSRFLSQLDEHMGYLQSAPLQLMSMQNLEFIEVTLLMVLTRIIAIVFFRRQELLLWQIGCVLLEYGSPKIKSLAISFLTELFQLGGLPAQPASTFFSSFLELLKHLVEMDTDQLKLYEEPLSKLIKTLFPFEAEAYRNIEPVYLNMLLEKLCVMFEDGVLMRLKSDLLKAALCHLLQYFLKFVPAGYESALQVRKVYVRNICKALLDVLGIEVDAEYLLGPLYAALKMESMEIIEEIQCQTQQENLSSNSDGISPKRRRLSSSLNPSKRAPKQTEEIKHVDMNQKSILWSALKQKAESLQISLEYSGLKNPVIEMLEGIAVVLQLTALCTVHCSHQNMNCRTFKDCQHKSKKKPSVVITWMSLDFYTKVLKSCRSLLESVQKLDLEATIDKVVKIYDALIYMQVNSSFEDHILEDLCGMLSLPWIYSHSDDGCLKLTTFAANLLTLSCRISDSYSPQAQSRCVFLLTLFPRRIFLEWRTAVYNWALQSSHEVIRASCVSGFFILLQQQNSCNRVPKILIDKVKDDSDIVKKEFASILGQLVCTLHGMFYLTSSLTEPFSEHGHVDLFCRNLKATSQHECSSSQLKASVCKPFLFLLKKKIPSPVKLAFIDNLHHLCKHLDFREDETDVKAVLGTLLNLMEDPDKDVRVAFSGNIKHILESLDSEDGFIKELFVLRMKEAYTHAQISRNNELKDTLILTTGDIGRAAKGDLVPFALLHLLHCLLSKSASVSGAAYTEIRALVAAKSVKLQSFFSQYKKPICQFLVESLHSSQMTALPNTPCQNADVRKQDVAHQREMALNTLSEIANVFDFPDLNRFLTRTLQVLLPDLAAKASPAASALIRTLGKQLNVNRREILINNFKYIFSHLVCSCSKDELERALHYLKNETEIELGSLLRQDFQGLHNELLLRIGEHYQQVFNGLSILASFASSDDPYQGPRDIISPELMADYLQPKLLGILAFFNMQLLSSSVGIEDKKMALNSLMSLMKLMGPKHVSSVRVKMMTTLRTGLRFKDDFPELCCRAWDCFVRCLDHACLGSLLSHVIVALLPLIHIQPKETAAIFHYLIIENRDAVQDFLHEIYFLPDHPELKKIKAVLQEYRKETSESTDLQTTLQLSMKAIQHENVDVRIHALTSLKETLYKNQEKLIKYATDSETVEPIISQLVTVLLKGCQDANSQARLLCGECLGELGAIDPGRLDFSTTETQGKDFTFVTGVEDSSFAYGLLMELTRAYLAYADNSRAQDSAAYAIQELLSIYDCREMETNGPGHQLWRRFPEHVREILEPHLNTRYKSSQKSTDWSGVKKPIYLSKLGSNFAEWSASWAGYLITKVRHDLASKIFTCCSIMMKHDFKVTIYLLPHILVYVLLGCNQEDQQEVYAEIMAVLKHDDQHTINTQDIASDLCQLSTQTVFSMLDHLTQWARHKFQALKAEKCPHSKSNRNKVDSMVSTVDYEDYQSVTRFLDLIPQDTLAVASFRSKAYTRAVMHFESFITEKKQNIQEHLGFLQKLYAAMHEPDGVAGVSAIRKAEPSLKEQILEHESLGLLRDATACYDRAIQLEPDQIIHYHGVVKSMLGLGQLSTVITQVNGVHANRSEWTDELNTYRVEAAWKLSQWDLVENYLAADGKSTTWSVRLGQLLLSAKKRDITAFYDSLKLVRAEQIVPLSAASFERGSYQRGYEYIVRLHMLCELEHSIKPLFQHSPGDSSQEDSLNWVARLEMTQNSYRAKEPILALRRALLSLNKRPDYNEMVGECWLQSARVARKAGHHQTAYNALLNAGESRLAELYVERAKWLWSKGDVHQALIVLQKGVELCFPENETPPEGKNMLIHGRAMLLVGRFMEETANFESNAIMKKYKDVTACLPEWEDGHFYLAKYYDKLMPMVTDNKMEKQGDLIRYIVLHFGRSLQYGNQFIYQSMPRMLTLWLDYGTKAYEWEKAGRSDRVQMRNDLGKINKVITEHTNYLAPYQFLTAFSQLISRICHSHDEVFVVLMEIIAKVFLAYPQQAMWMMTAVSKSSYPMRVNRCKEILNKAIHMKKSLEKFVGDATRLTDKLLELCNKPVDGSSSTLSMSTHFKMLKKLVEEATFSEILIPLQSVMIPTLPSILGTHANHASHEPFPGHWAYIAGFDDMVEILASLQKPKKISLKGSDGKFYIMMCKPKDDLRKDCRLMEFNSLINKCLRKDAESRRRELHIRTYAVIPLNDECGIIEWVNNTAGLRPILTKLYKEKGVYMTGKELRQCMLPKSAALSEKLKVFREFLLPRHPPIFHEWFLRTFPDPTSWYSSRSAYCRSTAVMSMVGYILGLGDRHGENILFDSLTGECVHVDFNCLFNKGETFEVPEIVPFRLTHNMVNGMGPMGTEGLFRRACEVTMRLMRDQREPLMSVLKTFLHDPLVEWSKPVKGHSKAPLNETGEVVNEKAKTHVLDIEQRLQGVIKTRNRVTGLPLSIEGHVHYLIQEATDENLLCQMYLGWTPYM
EXPERIMENTAL_PROTOCOL: ATR 33P radioactive kinase assay (immunoprecipitated FLAG-ATR)
Type: biochemical
MEASUREMENT_NAME: IC50

IN: GET /values?readout=IC50&item= `CC(C)(O)c1ccc(-c2cnc3c(n2)N(CC2CCOCC2)CC(=O)N3)cn1`
OUT: > 3 µM

---

ASSAY_TARGET: mTOR kinase (Homo sapiens, UniProt P42345)
EXPERIMENTAL_PROTOCOL: mTOR kinase enzyme assay
Format: biochemical
EXPERIMENTAL_SETUP: average ± SEM
Can you tell me IC50 for the items I'm about to list?
# unit: µM | format: bare number

IN: GET /values?readout=IC50&item= O=c1cc(N2CCOCC2)oc2c(-c3cccc4c3sc3ccccc34)cccc12 [NU7441]
OUT: 1.64

IN: GET /values?readout=IC50&item= O=c1[nH]c2ncc(-c3ccc(-c4nc[nH]n4)cc3)nc2n1CCC1CCOCC1 [CC214-1]
OUT: 0.002
